EXPERIMENT DESCRIPTION: Solubility of paclitaxel cholesterol complex in n-octanol
Type: physicochemical
DETAILS: organic solvent or mixture, thermodynamic from solid, 25° C., saturated solution, read-out: drug solubility in n-octanol
RESULT TYPE: solubility at 24 h (µg/mL)
Numeric only. Scale: µg/mL

Exam item: Requested field: solubility at 24 h. Item: CC(=O)O[C@H]1C(=O)[C@@]2(C)[C@H]([C@H](OC(=O)c3ccccc3)[C@]3(O)C[C@H](OC(=O)[C@H](O)[C@@H](NC(=O)c4ccccc4)c4ccccc4)C(C)=C1C3(C)C)[C@]1(OC(C)=O)CO[C@@H]1C[C@@H]2O
Marked response: 8860
